# Tested on: K24384-001-R-PDC complex spheroid growth;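 also: percent of DMSO vehicle-treated spheroid viability set as 100%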
# METHOD_SUMMARY: Anticancer human tumor K24384-001-R-PDC patient-derived pancreatic adenocarcinoma cell line growth inhibition [AhR]
# CONDITION: second compound 1 µM; first compound 3.16 µM; hits give low values
VALUE_KIND: viability, T/C (%)
Express your answer in %, writing the number without its unit.

Solved entries:
COMPOUND: CC1(C)CCC(CN2CCN(c3ccc(C(=O)NS(=O)(=O)c4ccc(NCC5CCOCC5)c([N+](=O)[O-])c4)c(Oc4cnc5[nH]ccc5c4)c3)CC2)=C(c2ccc(Cl)cc2)C1 + Cc1cncc(-c2nc(NCCc3c[nH]c4ccccc34)c3ncn(C(C)C)c3n2)c1
ASSAYED_TARGET: K24384-001-R-PDC complex spheroid growth;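 also: percent of DMSO vehicle-treated spheroid viability set as 100%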
RESULT_UNIT: %
viability, T/C: 119

COMPOUND: O=C(C=Cc1cccc(S(=O)(=O)Nc2ccccc2)c1)NO + CC(CO)NC(=O)c1cc(-c2ccc(Cl)cc2)nn(-c2cnn(C)c2)c1=O
ASSAYED_TARGET: K24384-001-R-PDC complex spheroid growth;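 also: percent of DMSO vehicle-treated spheroid viability set as 100%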
RESULT_UNIT: %
viability, T/C: 30.5

COMPOUND: CC(C)c1c(-c2ccccc2)nc2c(C#N)c[nH]n2c1=O + CC(CO)NC(=O)c1cc(-c2ccc(Cl)cc2)nn(-c2cnn(C)c2)c1=O
ASSAYED_TARGET: K24384-001-R-PDC complex spheroid growth;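 also: percent of DMSO vehicle-treated spheroid viability set as 100%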
RESULT_UNIT: %
viability, T/C: 72.1

COMPOUND: NS(=O)(=O)OCC1CC(n2ccc3c(NC4CCc5ccccc54)ncnc32)CC1O (configuration not stated) + Cc1cncc(-c2nc(NCCc3c[nH]c4ccccc34)c3ncn(C(C)C)c3n2)c1
ASSAYED_TARGET: K24384-001-R-PDC complex spheroid growth;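 also: percent of DMSO vehicle-treated spheroid viability set as 100%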
RESULT_UNIT: %
viability, T/C: 27.9

COMPOUND: Nc1ccccc1NC(=O)c1ccc(CNC(=O)OCc2cccnc2)cc1 + CC(CO)NC(=O)c1cc(-c2ccc(Cl)cc2)nn(-c2cnn(C)c2)c1=O
ASSAYED_TARGET: K24384-001-R-PDC complex spheroid growth;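 also: percent of DMSO vehicle-treated spheroid viability set as 100%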
RESULT_UNIT: %
viability, T/C: 28.8

COMPOUND: Nc1ccn(C2OC(CO)C(O)C2(F)F)c(=O)n1 (configuration not stated) + Cc1cncc(-c2nc(NCCc3c[nH]c4ccccc34)c3ncn(C(C)C)c3n2)c1
ASSAYED_TARGET: K24384-001-R-PDC complex spheroid growth;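 also: percent of DMSO vehicle-treated spheroid viability set as 100%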
RESULT_UNIT: %
viability, T/C: 41.6

Look up viability, T/C of CC1(C)CCC(CN2CCN(c3ccc(C(=O)NS(=O)(=O)c4ccc(NCC5CCOCC5)c([N+](=O)[O-])c4)c(Oc4cnc5[nH]ccc5c4)c3)CC2)=C(c2ccc(Cl)cc2)C1 + Cc1ccccc1N=Nc1ccc(NC(=O)c2ccnn2C)c(C)c1 and report it.
114
